# Assay System: human Bradykinin B1 receptor (Homo sapiens, UniProt P46663)
# Sequence (P46663 1-353): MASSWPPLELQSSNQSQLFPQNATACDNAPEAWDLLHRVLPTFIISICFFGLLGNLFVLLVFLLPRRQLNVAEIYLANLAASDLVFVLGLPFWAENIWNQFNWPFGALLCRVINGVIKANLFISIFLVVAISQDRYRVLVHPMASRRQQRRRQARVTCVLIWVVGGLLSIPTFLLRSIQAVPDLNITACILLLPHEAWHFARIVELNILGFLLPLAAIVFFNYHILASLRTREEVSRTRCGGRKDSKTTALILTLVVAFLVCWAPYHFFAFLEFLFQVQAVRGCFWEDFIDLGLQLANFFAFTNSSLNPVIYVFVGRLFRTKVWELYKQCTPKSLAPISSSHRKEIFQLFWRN
# Test Protocol: Calcium flux assay (FLIPR), CHO-K1 cells expressing human Bradykinin B1 receptor, absence of 0.1% BSA (hB1 free IC50)
# Test Conditions: absence of 0.1% BSA in assay buffer
pIC50: −log10 of the molar value.
Measured Metric: pIC50

Examples with their reported pIC50 follow.
Compound | Assay System | pIC50
CCC(F)(F)c1ccc(-c2ccc(NC(=O)C3(c4ccc(OC(F)(F)F)cc4)CC3)cc2C(=O)O)cn1 | human Bradykinin B1 receptor (Homo sapiens, UniProt P46663) | 6.54
CC(C)n1cc(-c2c(F)cc(NC(=O)C3(c4ccc(OC(F)(F)F)cc4F)CC3)cc2C(=O)O)cn1 | human Bradykinin B1 receptor (Homo sapiens, UniProt P46663) | 7.49
CCc1ccc(-c2c(F)cc(NC(=O)C3(c4ccc(C(F)(F)F)cc4F)CC3)cc2C(=O)O)cn1 | human Bradykinin B1 receptor (Homo sapiens, UniProt P46663) | 7.85
O=C(O)c1cc(NC(=O)C2(c3ccc(C(F)(F)F)cc3F)CC2)cc(F)c1-c1cnn(CC(F)(F)F)c1 | human Bradykinin B1 receptor (Homo sapiens, UniProt P46663) | 7.52
O=C(O)c1cc(NC(=O)C2(c3ccc(OC(F)(F)F)cc3F)CC2)ccc1-c1cnn(C2CCC2)c1 | human Bradykinin B1 receptor (Homo sapiens, UniProt P46663) | 7.77
O=C(O)c1cc(NC(=O)C2(c3ccc(C(F)(F)F)cc3F)CC2)ccc1-c1cnn(CC2CCC2)c1 | human Bradykinin B1 receptor (Homo sapiens, UniProt P46663) | 7.60

a = COCCn1cc(-c2ccc(NC(=O)C3(c4ccc(C(F)(F)F)cc4F)CC3)cc2C(=O)O)cn1
b = CC(C)(C)n1cc(-c2ccc(NC(=O)C3(c4ccc(OC(F)(F)F)cc4F)CC3)cc2C(=O)O)cn1
c = Cc1ccc(C2(C(=O)Nc3ccc(-c4cnc(C5CCC5)s4)c(C(=O)O)c3)CC2)c(F)c1
d = O=C(O)c1cc(NC(=O)C2(c3ccc(OC(F)(F)F)cc3F)CC2)ccc1-n1cc(C2CCC2)cn1
e = CC1(C)CC1(C(=O)Nc1ccc(-c2cnn(C3CCC3)c2)c(C(=O)O)c1)c1ccccc1F (centres unmarked)
Please order the records by their reported pIC50, lowest number first. Answer with the labels in sequence, matching the requested order.
e, d, a, b, c

###

# Assay System: native human Bradykinin B1 receptor (Homo sapiens, UniProt P46663)
# Construct: which express native human Bradykinin B1 receptor after induction with human IL-1beta; Coriell Institute
# Test Protocol: Calcium flux assay (FLIPR) with IMR-90 human fibroblasts expressing Bradykinin B1 receptor after IL-1beta induction (hB1 IMR-90)
# Test Conditions: IMR-90 human fibroblasts after IL-1beta induction, read-out: hB1 IMR90 IC50
Measured Metric: IC50 (nM)

Structure As Smiles | Scale Unit | IC50
CC(C)n1cc(-c2ccc(NC(=O)C3(c4ccc(C(F)(F)F)cc4F)CC3)cc2C(=O)O)cn1 | nM | 49
O=C(O)c1cc(NC(=O)C2(c3ccc(C(F)(F)F)cc3)CC2)cc(F)c1-c1cnn(C2CCC2)c1 | nM | 14
CC(C)n1cc(-c2ccc(NC(=O)C3(c4ccc(OC(F)(F)F)cc4F)CC3)cc2C(=O)O)cn1 | nM | 28
O=C(O)c1cc(NC(=O)C2(c3ccc(Cl)cc3F)CC2)ccc1-c1cnn(C2CCC2)c1 | nM | 15
Cc1ccc(-c2ccc(NC(=O)C3(c4ccc(C(F)(F)F)cc4F)CC3)cc2C(=O)O)cn1 | nM | 130

P = CCOc1ccc(-c2ccc(NC(=O)C3(c4ccc(OC(F)(F)F)cc4F)CC3)cc2C(=O)O)cn1
Q = CCC(F)(F)c1ccc(-c2ccc(NC(=O)C3(c4ccc(OC(F)(F)F)cc4F)CC3)cc2C(=O)O)cn1
R = O=C(O)c1cc(NC(=O)C2(c3ccc(C(F)(F)F)cc3F)CC2)ccc1-c1ccc(C(F)F)nc1
Sequence the entries by IC50, beginning with the highest number. Answer with the labels in sequence, matching the requested order.
R, Q, P
(R: 3400 nM, Q: 73 nM, P: 25 nM)

1 = O=C(O)c1cc(NC(=O)C2(c3ccc(OC(F)(F)F)cc3F)CC2)cc(F)c1-c1cnn(C2CCC2)c1
2 = Cc1cc(NC(=O)C2(c3ccc(C(F)(F)F)cc3F)CC2)cc(C(=O)O)c1-c1cnn(C2CCC2)c1
3 = O=C(O)c1cc(NC(=O)C2(c3cc(Cl)ccc3F)CC2)ccc1-c1cnn(C2CCC2)c1
Sequence the entries by IC50, beginning with the highest number. Answer with the labels in sequence, matching the requested order.
2, 3, 1

###

# Assay System: human Bradykinin B1 receptor (Homo sapiens)
# Construct: host or cells: CHO-K1
# Sequence (P46663 1-353): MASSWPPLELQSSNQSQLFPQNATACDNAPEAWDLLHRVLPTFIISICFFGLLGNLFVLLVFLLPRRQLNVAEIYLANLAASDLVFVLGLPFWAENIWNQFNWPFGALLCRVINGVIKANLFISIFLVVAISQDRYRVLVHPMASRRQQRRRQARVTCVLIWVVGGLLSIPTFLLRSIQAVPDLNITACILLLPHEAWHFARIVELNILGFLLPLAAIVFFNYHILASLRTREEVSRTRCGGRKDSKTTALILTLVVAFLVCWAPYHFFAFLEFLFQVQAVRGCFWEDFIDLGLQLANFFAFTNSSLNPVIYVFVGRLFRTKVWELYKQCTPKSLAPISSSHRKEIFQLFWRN
# Test Protocol: Calcium flux assay (FLIPR), CHO-K1 cells expressing human Bradykinin B1 receptor, absence of 0.1% BSA (hB1 free IC50)
# Type: cell-based
# Test Conditions: absence of 0.1% BSA in assay buffer
Measured Metric: IC50 (nM)

Compound | IC50 (nM)
CCC(F)(F)c1ccc(-c2ccc(NC(=O)C3(c4ccc(F)cc4F)CC3)cc2C(=O)O)cn1 | 2400

P = O=C(O)c1cc(NC(=O)C2(c3ccc(Cl)c(F)c3)CC2)ccc1-c1cnn(C2CCC2)c1
Q = Cc1ccc(-c2ccc(NC(=O)C3(c4ccc(C(F)(F)F)cc4F)CC3)cc2C(=O)O)nc1
R = CCC(F)(F)c1ccc(-c2c(C)cc(NC(=O)C3(c4ccc(OC(F)(F)F)cc4F)CC3)cc2C(=O)O)cn1
Please order the records by their reported IC50, lowest number first. Answer with the labels in sequence, matching the requested order.
P, R, Q

I = CC1(Cn2cc(-c3ccc(NC(=O)C4(c5ccc(OC(F)(F)F)cc5F)CC4)cc3C(=O)O)cn2)CC1
II = CCC(F)(F)c1ccc(-c2ccc(NC(=O)C3(c4ccc(C(F)(F)F)cc4)CC3)cc2C(=O)O)cn1
Endpoint returns the identifier whose IC50 is numerically larger, either I or II . Selection: enter the item's label.
II
(II: 710 nM, I: 8.1 nM)

P = Cn1cc(-c2c(F)cc(NC(=O)C3(c4ccc(OC(F)(F)F)cc4F)CC3)cc2C(=O)O)cn1
Q = O=C(O)c1cc(NC(=O)C2(c3ccc(OC(F)(F)F)cc3F)CC2)ccc1-c1ccc(C(F)(F)F)nc1
Endpoint returns the identifier whose IC50 is numerically larger, either P or Q . Selection: enter the item's label.
Q

###

# Assay System: human Bradykinin B1 receptor (Homo sapiens, UniProt P46663)
# Construct: host or cells: CHO-K1
# Test Protocol: Calcium flux assay (FLIPR), CHO-K1 cells expressing human Bradykinin B1 receptor, absence of 0.1% BSA (hB1 free IC50)
# Assay type: cell-based
# Test Conditions: absence of 0.1% BSA in assay buffer
Measured Metric: IC50 (nM)

Compound | Measured Metric | Scale Unit | Experimental Value
O=C(O)c1cc(NC(=O)C2(c3ccc(OC(F)(F)F)cc3)CC2)ccc1-c1cnn(C2CCC2)c1 [Example 78] | IC50 | nM | 300

P = CC(C)Cn1cc(-c2ccc(NC(=O)C3(c4ccc(C(F)(F)F)cc4F)CC3)cc2C(=O)O)cn1 [Example 74]
Q = CCC(F)(F)c1ccc(-c2ccc(NC(=O)C3(c4ccc(Cl)cc4F)CC3)cc2C(=O)O)cn1 [Example 24]
Endpoint returns the identifier whose IC50 is numerically larger, either P or Q . Selection: enter the item's label.
Q
